System: HepG2 2.2.15
Assay: Inhibition of Hsc70 mRNA expression in human HepG2(2.2.15) cells at 100 ug/ml after 24 hrs by RT-PCR analysis
Type: functional
Conditions: HepG2 2.2.15, 24 h
measurement_type: inhibition at 100 µg/mL (%)
Respond numerically; units are % and should not be typed.

// below: answered compounds
compound | measurement_type | unit_descriptor | reported_measurement
O=C(O)CCC[C@@H]1[C@H]2CCCN3CCC[C@@H](CN1S(=O)(=O)c1ccccc1)[C@@H]23 | inhibition at 100 µg/mL | % | 22.1
O=C1CCC[C@@H]2[C@H]3CCCN4CCC[C@@H](CN12)[C@@H]34 [MATRINE] | inhibition at 100 µg/mL | % | 52.4

Kindly consider the entry below.
The compound listed as O=C1CCC[C@@H]2[C@H]3CCC[N+]4([O-])CCC[C@@H](CN12)[C@@H]34 (stereo not given in full) [OXYMATRINE] has a reported inhibition at 100 µg/mL of 52
